Biological target: UniProtKB P51681
Sequence (P51681 whole entry): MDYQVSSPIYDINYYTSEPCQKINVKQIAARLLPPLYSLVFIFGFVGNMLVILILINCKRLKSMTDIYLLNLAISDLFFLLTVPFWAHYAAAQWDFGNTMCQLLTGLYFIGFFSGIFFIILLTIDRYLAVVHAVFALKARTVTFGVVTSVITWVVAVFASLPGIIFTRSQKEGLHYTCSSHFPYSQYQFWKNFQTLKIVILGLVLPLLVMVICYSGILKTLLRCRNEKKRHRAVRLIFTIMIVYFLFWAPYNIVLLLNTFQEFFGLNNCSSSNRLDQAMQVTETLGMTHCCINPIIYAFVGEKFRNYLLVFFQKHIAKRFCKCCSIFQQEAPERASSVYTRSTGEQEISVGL
Assay: Positive allosteric modulation of human CCR5 expressed in HEK293T cells co-expressing CAMYEL assessed as increase in CCL4-induced inhibition of forskolin-stimulated cAMP accumulation after 10 mins by BRET assay
pEC50: −log10 of the molar value.

Smi: CC(C)CN1CC(C(=O)Nc2ccc(S(=O)(=O)Nc3nccs3)cc2)=Cc2ccccc2C1=O
pEC50: < 8.00
//
Smi: CC(C)CN1CC(C(=O)Nc2ccc(CN(C)C3CCOCC3)cc2)=Cc2ccc(NS(C)(=O)=O)cc2C1=O
pEC50: < 8.00
//
Smi: Cc1ccc(-c2ccc3c(c2)C=C(C(=O)Nc2ccc(CN(C)C4CCOCC4)cc2)CN(CC(C)C)C3=O)cc1
pEC50: < 8.00
//
Smi: Cc1ccc(-c2ccc3c(c2)C=C(C(=O)Nc2ccc(C[N+](C)(C)C4CCOCC4)cc2)CCC3)cc1
pEC50: 8.15
//
Smi: Cc1ccc(-c2ccc3c(c2)C(=O)N(CC(C)C)CC(C(=O)Nc2ccc(CN(C)C4CCOCC4)cc2)=C3)cc1
pEC50: < 8.00
//
Smi: CC(C)CN1CC(C(=O)Nc2ccc(CN(C)C3CCOCC3)cc2)=Cc2ccc([N+](=O)[O-])cc2C1=O
pEC50: < 8.00
//
Smi: CC(C)CN1CC(C(=O)Nc2ccc(CN(C)C3CCOCC3)cc2)=Cc2ccccc2C1=O
pEC50: 5.61
//
Smi: CC(C)CN1CC(C(=O)Nc2ccc(CN(C)C3CCOCC3)cc2)=Cc2c(cccc2[N+](=O)[O-])C1=O
pEC50: < 8.00
//
Smi: CC(=O)Nc1ccc2c(c1)C(=O)N(CC(C)C)CC(C(=O)Nc1ccc(CN(C)C3CCOCC3)cc1)=C2
pEC50: < 8.00

====

Target: C-C chemokine receptor type 2 (Homo sapiens, UniProt P41597)
Experiment: Antagonist activity at human CCR2b expressed in human Chem1 cells assessed as inhibition of human recombinant CCL2 induced Ca2+ mobilization preincubated for 10 mins followed by CCL2 induction measured every sec for 120 secs by Fluo-4-AM dye-based fluorescence assay
Type: functional, cell-based
Sequence (P41597 whole entry): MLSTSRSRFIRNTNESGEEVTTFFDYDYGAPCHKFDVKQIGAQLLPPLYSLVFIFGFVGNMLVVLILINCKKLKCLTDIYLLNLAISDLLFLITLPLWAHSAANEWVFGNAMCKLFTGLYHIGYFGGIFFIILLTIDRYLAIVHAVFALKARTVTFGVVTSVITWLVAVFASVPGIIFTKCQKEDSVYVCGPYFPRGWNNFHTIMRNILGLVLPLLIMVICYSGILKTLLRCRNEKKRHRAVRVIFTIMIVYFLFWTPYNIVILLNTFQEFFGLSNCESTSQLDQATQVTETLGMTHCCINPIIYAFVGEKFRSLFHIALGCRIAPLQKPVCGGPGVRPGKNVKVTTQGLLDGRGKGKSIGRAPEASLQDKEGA
pIC50: −log10 of the molar value.

Smi: Cc1ccc(-c2ccc3c(c2)C(=O)N(CC(C)C)CC(C(=O)Nc2ccc(CN(C)C4CCOCC4)cc2)=C3)cc1
pIC50: 5.52
--
Smi: Cc1ccc(-c2ccc3c(c2)C=C(C(=O)Nc2ccc(CN(C)C4CCOCC4)cc2)CN(CC(C)C)C3=O)cc1
pIC50: 6.85

====

Known inhibition of a selection of compounds
Molecular target: C-C chemokine receptor type 2 (Homo sapiens, UniProt P41597)
Experiment: Displacement of [3H]INCB3344 from human CCR2 expressed in human U2OS cells at 1 uM after 120 mins by scintillation spectrometric analysis relative to control
Type: cell-based
Sequence (P41597 whole entry, looked up): as the sequence (P41597 whole entry) above

Smi: CC(C)CN1CC(C(=O)Nc2ccc(CN(C)C3CCOCC3)cc2)=Cc2ccc(NS(C)(=O)=O)cc2C1=O
inhibition: 18%
//
Smi: CC(C)CN1CC(C(=O)Nc2ccc(CN(C)C3CCOCC3)cc2)=Cc2ccccc2C1=O
inhibition: 18%
//
Smi: CC(C)CN1CC(C(=O)Nc2ccc(CN(C)C3CCOCC3)cc2)=Cc2ccc([N+](=O)[O-])cc2C1=O
inhibition: 9%
//
Smi: CC(=O)Nc1ccc2c(c1)C(=O)N(CC(C)C)CC(C(=O)Nc1ccc(CN(C)C3CCOCC3)cc1)=C2
inhibition: 15%

====

Target: UniProt:P41597
Test: Displacement of [3H]INCB3344 from human CCR2 expressed in human U2OS cells at 1 uM after 120 mins by scintillation spectrometric analysis relative to control
Format: cell-based

Smi: CC(C)CN1CC(C(=O)Nc2ccc(S(=O)(=O)Nc3nccs3)cc2)=Cc2ccccc2C1=O
Measurement Target: UniProt:P41597
inhibition [%]: 18
//
Smi: CC(C)CN1CC(C(=O)Nc2ccc(CN(C)C3CCOCC3)cc2)=Cc2c(cccc2[N+](=O)[O-])C1=O
Measurement Target: UniProt:P41597
inhibition [%]: 6
//
Smi: Cc1ccc(-c2ccc3c(c2)C(=O)N(CC(C)C)CC(C(=O)Nc2ccc(CN(C)C4CCOCC4)cc2)=C3)cc1
Measurement Target: UniProt:P41597
inhibition [%]: 0

====

Target: C-C chemokine receptor type 2 (Homo sapiens, UniProt P41597)
Assay: Displacement of [3H]INCB3344 from human CCR2 expressed in human U2OS cells after 120 mins by scintillation spectrometric analysis
Format: cell-based

Smi: Cc1ccc(-c2ccc3c(c2)C=C(C(=O)Nc2ccc(CN(C)C4CCOCC4)cc2)CN(CC(C)C)C3=O)cc1
IC50 [nM]: 387
